// data source = patent US20220380459A1

Target Or Test System: T1, human CD33 extracellular domain (human, UniProt P20138 18-259)
T1 construct: soluble monomeric ECD; also called human CD33 ECD; hCD33
Method Notes: BLI Octet, IgG loaded;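 further: IgGs captured on AHC biosensors, exposed to 100 nM antigen for 3 min association then 3 min dissociation in buffer, kinetics fitted with a 1:1 binding model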
Below, each entry is listed alongside its reported kon.
Return type: number; implicit unit M⁻¹ s⁻¹.

ADI-11830 IgG (antibody, V domains shown, IgG; also called Ab9) VH: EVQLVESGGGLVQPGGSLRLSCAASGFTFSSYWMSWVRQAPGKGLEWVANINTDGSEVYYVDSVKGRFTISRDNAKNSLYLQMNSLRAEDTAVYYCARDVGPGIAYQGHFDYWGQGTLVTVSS VL: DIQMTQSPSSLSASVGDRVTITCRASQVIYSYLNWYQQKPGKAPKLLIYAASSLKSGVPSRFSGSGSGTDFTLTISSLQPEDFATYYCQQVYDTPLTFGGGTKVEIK: 770000

Prompt: Return reported kon; argument: ADI-11809 IgG (antibody, V domains shown, IgG; also called Ab6) VH: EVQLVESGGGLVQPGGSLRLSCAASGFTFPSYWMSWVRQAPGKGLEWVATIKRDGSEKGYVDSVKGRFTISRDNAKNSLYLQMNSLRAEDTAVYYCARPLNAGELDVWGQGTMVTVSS VL: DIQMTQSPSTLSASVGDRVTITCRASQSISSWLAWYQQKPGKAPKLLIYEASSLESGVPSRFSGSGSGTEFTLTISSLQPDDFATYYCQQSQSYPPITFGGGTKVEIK
Completion: 638000

Prompt: Return reported kon; argument: ADI-11776 IgG (antibody, V domains shown, IgG; also called Ab3; H76) VH: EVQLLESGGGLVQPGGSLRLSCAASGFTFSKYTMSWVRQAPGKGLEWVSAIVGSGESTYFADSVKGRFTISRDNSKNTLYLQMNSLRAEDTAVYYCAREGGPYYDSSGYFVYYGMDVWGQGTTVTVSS VL: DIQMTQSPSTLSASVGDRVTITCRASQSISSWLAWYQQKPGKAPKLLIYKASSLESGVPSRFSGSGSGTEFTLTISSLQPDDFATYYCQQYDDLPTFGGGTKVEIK
Completion: 679000

Prompt: Return reported kon; argument: ADI-11812 IgG (antibody, V domains shown, IgG; also called Ab24) VH: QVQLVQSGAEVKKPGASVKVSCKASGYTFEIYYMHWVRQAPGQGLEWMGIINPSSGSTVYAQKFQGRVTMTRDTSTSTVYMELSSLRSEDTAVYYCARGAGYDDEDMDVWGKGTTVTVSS VL: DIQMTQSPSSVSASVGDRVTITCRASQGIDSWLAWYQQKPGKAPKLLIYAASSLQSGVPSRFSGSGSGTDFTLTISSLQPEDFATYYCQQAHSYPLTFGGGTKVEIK
Completion: 166000

Prompt: Return reported kon; argument: ADI-10157 IgG (antibody, V domains shown, IgG; also called Ab13) VH: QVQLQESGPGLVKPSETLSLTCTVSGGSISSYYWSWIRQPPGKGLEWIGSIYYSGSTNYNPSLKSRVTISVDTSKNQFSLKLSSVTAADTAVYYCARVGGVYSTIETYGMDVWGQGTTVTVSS VL: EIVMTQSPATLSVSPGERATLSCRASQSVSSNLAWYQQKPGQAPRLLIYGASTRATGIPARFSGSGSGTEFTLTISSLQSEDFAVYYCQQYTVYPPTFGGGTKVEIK
Completion: 79900
